B1: POU domain, class 2, transcription factor 2, residues 200 to 269; numbered along this chain, P09086 (parent)
chain: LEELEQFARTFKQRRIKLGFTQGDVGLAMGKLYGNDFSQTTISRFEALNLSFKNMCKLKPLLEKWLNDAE

- Variants of: B1
- TEST_PROTOCOL: abundance fitness (aPCA) (normalised: wild type 0, dead -1); higher = more abundant; growth selection in yeast, the domain comes from the species named
- TEST_PARAMETERS: Homo sapiens
Lab note: anything with abundance fitness at or over -0.07 counts as class 1; the rest go in class 0.

* LEELEQFARTFKQRRIKLGFTQGDVGLAMGKNYGNDFSQTTISRFEALNLSFKNMCKLKPLLEKWLNDAE | class 0
* LEELEQFARTFKQRRIKLGFTQGDVGLAMGGLYGNDFSQTTISRFEALNLSFKNMCKLKPLLEKWLNDAE | class 1
* LEELEQFARTFKQRRIKLGFTQGDVGLAMGKLYGFDFSQTTISRFEALNLSFKNMCKLKPLLEKWLNDAE | class 1
* LEELEQFARTFKQRRIKLGNTQGDVGLAMGKLYGNDFSQTTISRFEALNLSFKNMCKLKPLLEKWLNDAE | class 0
* LEELEQFARTFKQRRIKLGFTQGDVGLAMGKLYGNDFSQTTISRFDALNLSFKNMCKLKPLLEKWLNDAE | class 0
* LEELEQFARTFKQRRIKLGFTQGDVGLAMGKLYGNDFSQTTISRFEALNLSFKNMCKLKPLLEKALNDAE | class 0
* LEELEQFARTFKQRNIKLGFTQGDVGLAMGKLYGNDFSQTTISRFEALNLSFKNMCKLKPLLEKWLNDAE | class 0
* LEELEQFARTFKQRRIKLGFTQGDVGLAMGKLYGNDFSQTTISRFEAHNLSFKNMCKLKPLLEKWLNDAE | class 1
* LEELEQMARTFKQRRIKLGFTQGDVGLAMGKLYGNDFSQTTISRFEALNLSFKNMCKLKPLLEKWLNDAE | class 0
* LEELEQFARTFKQRRIKLGFTQGDVGLAMGKLYGNLFSQTTISRFEALNLSFKNMCKLKPLLEKWLNDAE | class 1
* LEELEQFARTFKQRRIKLGFTQGDVGLAMGKLYGNDFSQTTISRFEALNLSFKNMCKLKCLLEKWLNDAE | class 0
* LEELEQFARTFKQRRIKLGFTQGDVGLAMGKLYGNYFSQTTISRFEALNLSFKNMCKLKPLLEKWLNDAE | class 1
* LEELEQFARTFKQRRIKLGFTQGDVYLAMGKLYGNDFSQTTISRFEALNLSFKNMCKLKPLLEKWLNDAE | class 0
* LEELEQFARTFKQRRIKLMFTQGDVGLAMGKLYGNDFSQTTISRFEALNLSFKNMCKLKPLLEKWLNDAE | class 0
* LEELEQFARTFKQRRIKLGFTQGDVGLAMGKLYGNQFSQTTISRFEALNLSFKNMCKLKPLLEKWLNDAE | class 1
* LEELEQFARTFKQRRIKLGFTQGDVGLAMGKSYGNDFSQTTISRFEALNLSFKNMCKLKPLLEKWLNDAE | class 1
* LEELEQFARTFKQRRIKLGFTQGDVGLAMGKLYGNDKSQTTISRFEALNLSFKNMCKLKPLLEKWLNDAE | class 0
* LEELEQFARTFKQRRIKLGFTQGDVGLAMGKLYGNDFSQTTISRFEALNLSFKNMCKLKPLLEKWLNDAK | class 0
* LEELEQFARTFKQRRIKLGFTQGDVGLAMGKLYGNDFSQTTISRFEALNLSFKNMCKLKVLLEKWLNDAE | class 1
* LEELEQFARTFKQRRIKLGFTQGDVGLAMGKLYGNDFSQTTISRFWALNLSFKNMCKLKPLLEKWLNDAE | class 0
* LEELEQFARTFKQRRIKLGFTQGDVGLAMGKLYGNDFSQTTISRFEALNLKFKNMCKLKPLLEKWLNDAE | class 1
